Source: patent US20230158025A1

- system-tested: recombinant human GALK1 (Homo sapiens, UniProt P51570)
- Sequence (P51570 whole entry): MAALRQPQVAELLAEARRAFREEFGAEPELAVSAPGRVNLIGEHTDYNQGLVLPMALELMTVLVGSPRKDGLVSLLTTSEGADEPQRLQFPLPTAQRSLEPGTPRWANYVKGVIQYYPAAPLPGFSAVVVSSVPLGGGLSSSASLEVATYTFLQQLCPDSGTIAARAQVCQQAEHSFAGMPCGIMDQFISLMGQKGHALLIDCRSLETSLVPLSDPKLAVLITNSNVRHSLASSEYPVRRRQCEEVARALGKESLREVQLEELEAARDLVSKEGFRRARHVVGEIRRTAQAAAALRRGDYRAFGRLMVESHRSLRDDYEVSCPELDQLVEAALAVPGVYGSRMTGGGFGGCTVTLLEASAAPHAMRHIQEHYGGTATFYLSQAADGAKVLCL
- protocol-summary: hGALK1 biochemical activity assay (Kinase-Glo Plus, ATP depletion)
- setup-conditions: recombinant human GALK1, Kinase-Glo Plus ATP depletion; read-out: hGALK
pIC50: −log10 of the molar value.
assay-metric: pIC50

Examples with their reported pIC50 follow.
molecule | system-tested | pIC50
CC1=C(C(=O)NCc2c(C)nn(C)c2C)C(c2ccc(C)cc2Cl)N=C(Nc2nc3ccc(F)cc3o2)N1 (stereo not shown) | recombinant human GALK1 (Homo sapiens, UniProt P51570) | 5.41
CC1=C(C(=O)Nc2ccc(-c3nn[nH]n3)cn2)C(c2ccccc2Cl)N=C(Nc2nc3ccc(F)cc3o2)N1 (stereo not shown) | recombinant human GALK1 (Homo sapiens, UniProt P51570) | 5.31
COc1ccc([C@H]2N=C(Nc3nc4cccc(N)c4o3)NC(C)=C2C(=O)Nc2cc(C(=O)O)ccn2)c(Cl)c1 | recombinant human GALK1 (Homo sapiens, UniProt P51570) | 5.26
CC1=C(C(=O)Nc2nnc(-c3ccncc3)s2)C(c2ccccc2Cl)N=C(Nc2nc3ccccc3o2)N1 (stereo not shown) | recombinant human GALK1 (Homo sapiens, UniProt P51570) | 4.96

I: CC1=C(C(=O)NCc2ccccn2)C(c2ccccc2Cl)N=C(Nc2nc3ccccc3o2)N1 (stereo not shown)
II: CCOC(=O)c1cccc(NC(=O)C2=C(C)NC(Nc3nc4ccccc4o3)=NC2c2ccccc2Cl)c1 (stereo not shown)
III: CC1=C(C(=O)Nc2cccc(C(=O)O)c2)C(c2ccccc2Cl)N=C(Nc2nc3ccccc3o2)N1 (stereo not shown)
Inquiry: Let's sort these by pIC50, smallest first. Go ahead? Labels, ranked as asked.
Reply text: I, II, III

---

- protocol-summary: aqueous kinetic solubility
assay-metric: Sol. (µg/mL)

compound | unit-symbol | measured
CC1=C(C(=O)Nc2cc(C(=O)O)ccn2)C(c2cccc(Cl)c2Cl)N=C(Nc2nc3ccc(F)cc3o2)N1 (stereo not shown) | µg/mL | 55.5

1: CC1=C(C(=O)Nc2cc(C(=O)O)ccn2)[C@@H](c2ccc(C)cc2Cl)N=C(Nc2nc3ccc(F)cc3o2)N1
2: CC1=C(C(=O)NCc2cnn(C)c2)[C@@H](c2ccc(C)cc2Cl)N=C(Nc2nc3cccc(N)c3o2)N1
3: CC1=C(C(=O)NCc2cnn(C)c2)C(c2ccc(C)cc2Cl)N=C(Nc2nc3cccc(N)c3o2)N1 (racemic)
Inquiry: Order these by Sol., descending, and give the full ranking. Labels, ranked as asked.
Reply text: 1, 2, 3
(1: 53.8 µg/mL, 2: 21.9 µg/mL, 3: 4.47 µg/mL)

---

- protocol-summary: aqueous kinetic solubility
assay-metric: Sol. (µg/mL)

molecule | Sol., µg/mL
CC1=C(C(=O)Nc2cc(C(=O)O)ccn2)C(c2ccccc2Br)N=C(Nc2nc3ccc(F)cc3o2)N1 (stereo not shown) | 36.0
COc1ccc(C2N=C(Nc3nc4ccc(F)cc4o3)NC(C)=C2C(=O)Nc2cc(C(=O)O)ccn2)c(Cl)c1 (racemic) | 8.3
CCn1cc(CNC(=O)C2=C(C)NC(Nc3nc4cccc(N)c4o3)=NC2c2ccc(C)cc2Cl)cn1 (stereo not shown) | 2.43
CCOc1ccc(C2N=C(Nc3nc4ccc(F)cc4o3)NC(C)=C2C(=O)Nc2cc(C(=O)O)ccn2)c(Cl)c1 (stereo not shown) | 11.3

1: CC1=C(C(=O)Nc2cc(C(=O)O)ccc2F)C(c2ccccc2Cl)N=C(Nc2nc3ccc(F)cc3o2)N1 (stereo not shown)
2: CC1=C(C(=O)Nc2cc(C(=O)O)ccn2)C(c2ccccc2Cl)N=C(Nc2nc3ccc(Cl)cc3o2)N1 (stereo not shown)
3: CC1=C(C(=O)Nc2cc(C(=O)O)ccn2)C(c2ccc(C(F)(F)F)cc2Cl)N=C(Nc2nc3ccc(F)cc3o2)N1 (stereo not shown)
4: CC1=C(C(=O)Nc2cc(C(=O)O)ccn2)C(c2ccccc2Cl)N=C(Nc2nc3c(C)cccc3o2)N1 (stereo not shown)
5: CC1=C(C(=O)Nc2cc(C(=O)O)ccn2)C(c2ccccc2Cl)N=C(Nc2nc3cccc(C(F)(F)F)c3o2)N1 (stereo not shown)
Inquiry: Let's sort these by Sol., smallest first. Go ahead? Labels, ranked as asked.
Reply text: 4, 2, 3, 1, 5

P: CC1=C(C(=O)NCc2cnn(C)c2)[C@H](c2ccc(C)cc2Cl)N=C(Nc2nc3cccc(N)c3o2)N1
Q: CC1=C(C(=O)Nc2cc(C(=O)O)ccn2)C(c2ccc(-c3ccc(C(F)(F)F)cc3)cc2Cl)N=C(Nc2nc3ccc(F)cc3o2)N1 (stereo not shown)
R: CC1=C(C(=O)Nc2cc(C(=O)O)ccn2)C(c2ccccc2Cl)N=C(Nc2nc3cccc(OC(F)(F)F)c3o2)N1 (stereo not shown)
Inquiry: Let's sort these by Sol., smallest first. Go ahead? Labels, ranked as asked.
Reply text: Q, P, R
(Q: 8.1 µg/mL, P: 17.14 µg/mL, R: 47.8 µg/mL)

---

- protocol-summary: rat microsomal stability (RLM)
- setup-conditions: microsomal half-life
Let's look at some compounds and their measured Metab. Stabil. (m).

compound | assay-metric | measured
COc1ccc(C(=O)O)cc1NC(=O)C1=C(C)NC(Nc2nc3ccc(F)cc3o2)=NC1c1ccccc1Cl (stereo not shown) | Metab. Stabil. (m) | >30 m

Inquiry: Quick check: Metab. Stabil. (m) of CC1=C(C(=O)Nc2cc(N(C)C)ccn2)C(c2ccc(C)cc2Cl)N=C(Nc2nc3ccc(F)cc3o2)N1 (stereo not shown) ?
Reply text: 17.58 m

Inquiry: Quick check: Metab. Stabil. (m) of CC1=C(C(=O)Nc2cc(C(=O)O)ccn2)C(c2cccc(C(F)(F)F)c2Cl)N=C(Nc2nc3ccc(F)cc3o2)N1 (stereo not shown) ?
Reply text: >30 m

Inquiry: Quick check: Metab. Stabil. (m) of CC1=C(C(=O)Nc2cc(-c3nn[nH]n3)ccn2)C(c2ccc(C)cc2Cl)N=C(Nc2nc3ccc(F)cc3o2)N1 (stereo not shown) ?
Reply text: >30 m

Inquiry: Quick check: Metab. Stabil. (m) of COC(=O)c1ccnc(NC(=O)C2=C(C)NC(Nc3nc4ccc(F)cc4o3)=N[C@H]2c2ccccc2Cl)c1 ?
Reply text: 30.91 m

Inquiry: Quick check: Metab. Stabil. (m) of CC1=C(C(=O)Nc2ccc(C(=O)O)cn2)C(c2ccccc2Cl)N=C(Nc2nc3ccc(F)cc3o2)N1 (stereo not shown) ?
Reply text: >30 m

Inquiry: Quick check: Metab. Stabil. (m) of CC1=C(C(=O)Nc2cc(C(=O)O)ccn2)C(c2ccc(C#N)cc2Cl)N=C(Nc2nc3ccc(F)cc3o2)N1 (stereo not shown) ?
Reply text: >30 m

---

- protocol-summary: rat microsomal stability (RLM)
- setup-conditions: microsomal stability half-life
assay-metric: Metab. Stabil. (m)

Examples with their reported Metab. Stabil. (m) follow.
compound | unit-symbol | Metab. Stabil. (m)
CC1=C(C(=O)NCc2ccccc2O)C(c2ccccc2Cl)N=C(Nc2nc3ccccc3o2)N1 (stereo not drawn) | m | 5.188
CC1=C(C(=O)NCc2cncn2C)C(c2ccccc2Cl)N=C(Nc2nc3ccccc3o2)N1 (stereo not drawn) | m | 8.8722
COC(=O)c1ccccc1CNC(=O)C1=C(C)NC(Nc2nc3ccccc3o2)=NC1c1ccccc1Cl (stereo not drawn) | m | 1.742
CCn1cc(CNC(=O)C2=C(C)NC(Nc3nc4ccc(F)c(N)c4o3)=N[C@@H]2c2ccc(C)cc2Cl)cn1 | m | 8.619
CC1=C(C(=O)N2CCOCC2)C(c2ccccc2Cl)N=C(Nc2nc3ccccc3o2)N1 (stereo not drawn) | m | 2.1

A: CC1=C(C(=O)NCc2cncs2)C(c2ccccc2Cl)N=C(Nc2nc3ccccc3o2)N1 (stereo not drawn)
B: CCOC(=O)C1=C(C(C)C)NC(Nc2nc3ccccc3o2)=NC1c1ccccc1Cl (stereo not drawn)
Inquiry: From the items above, decide which of A and B has the lower Metab. Stabil. (m) reading. I would appreciate it if you answered with the label of your choice.
Reply text: A
(A: 6.432 m, B: 57.5 m)

a: CC1=C(C(=O)NCc2cn(C)cn2)[C@H](c2ccccc2Cl)N=C(Nc2nc3ccccc3o2)N1
b: CC1=C(C(=O)Nc2ccc(N3CCNCC3)cc2)C(c2ccccc2Cl)N=C(Nc2nc3ccccc3o2)N1 (stereo not drawn)
Inquiry: Sorting by Metab. Stabil. (m) in descending order, would a or b appear first? I would appreciate it if you answered with the label of your choice.
Reply text: b

A: CCn1cc(CNC(=O)C2=C(C)NC(Nc3nc4ccc(F)c(N)c4o3)=NC2c2ccc(Cl)cc2Cl)cn1 (stereo not drawn)
B: CC1=C(C(=O)Nc2ccc(-c3nnn[nH]3)cc2)C(c2ccccc2Cl)N=C(Nc2nc3ccccc3o2)N1 (stereo not drawn)
C: COC(=O)c1cccc(CNC(=O)C2=C(C)NC(Nc3nc4ccccc4o3)=NC2c2ccccc2Cl)c1 (stereo not drawn)
Inquiry: Let's sort these by Metab. Stabil. (m), smallest first. Go ahead? Labels, ranked as asked.
Reply text: C, A, B

A: CC1=C(C(=O)Nc2ccc(Cl)cn2)C(c2ccccc2Cl)N=C(Nc2nc3ccccc3o2)N1 (stereo not drawn)
B: CC1=C(C(=O)NCc2ccccn2)C(c2ccccc2Cl)N=C(Nc2nc3ccccc3o2)N1 (stereo not drawn)
Inquiry: From the items above, decide which of A and B has the lower Metab. Stabil. (m) reading. I would appreciate it if you answered with the label of your choice.
Reply text: B
(B: 6.557 m, A: 30.79 m)
